Test system: NCI-H522 lung
ASSAY_NAME: NCI-60 one-dose screen, 48 h (100 = growth as untreated, 0 = no growth, -100 = all killed)
ASSAY_CONTEXT: 10 µM unless noted
Description: Growth inhibition of the NCI-H522 human Non-Small Cell Lung tumor cell line is measured as a screen for anti-cancer activity. Cells are grown in 96 well plates and exposed to the test compound for 48 hours. Compounds are tested at a single concentration, which is 10^-5 M for most compounds. The reported endpoint is percent growth (GI% or GIPRCNT), where numbers from 0 - 100% represent growth inhibition, and numbers from -100% - 0 represent cell death. […]
Compounds without any hit were thinned out: in the full panel of roughly 83,000, 20% have a hit.
Class membership depends on growth alone; the intervals are low group (below 50%), middle group (50% to below 70%), high group (70% or more)

Q: Using the reported growth, which band applies to COc1cc(C2CC(=O)Nc3c2cnn3Cc2ccco2)cc2c1OCCO2 (stereo not given) ?
A: low group

Q: Kindly identify the class of CNC(=S)N/N=C/CSC/C=N/NC(=S)NC .
A: low group

Q: Given CN(C)CCOc1ccc(-c2nc3ccc(-c4nc5ccc(N6CCN(C)CC6)cc5[nH]4)cc3[nH]2)cc1 , name the class its growth places it in.
A: middle group

Q: Each compound maps to one class by growth. Which class for O=c1c2cccc3c(NC4CCCCC4)ccc(c32)c2nc3ccccc3n12 ?
A: middle group

Q: Lab note: sort C/C=C/C(N)=O into the matching growth band.
A: high group

Q: Where would C[C@@H]1CC[C@@H]2[C@@H]1[C@H](OC(=O)/C=C/c1ccccc1)[C@]1(C3CCCCC3)C[C@@H](OC(=O)CO)[C@@]2(C)O1 land among the classes by reported growth?
A: middle group

Q: Please classify: CCOC(=O)C(Cc1cc(I)c(O)c(I)c1)NC(=O)c1ccccc1 (stereo not given)
A: high group

Q: Which category does the recorded growth put COc1ccc(/C=c2/c(=O)[nH]c3nc4sc(C)c(C)c4c(=O)n23)cc1 in?
A: high group

Q: Class (by measured growth) for c1ccc(-c2nc(N3CCOCC3)c3c4c(sc3n2)CCCCC4)nc1
A: low group

Q: Using the reported growth, which band applies to CC#Cc1nc2ccccc2c(=O)[nH]1 ?
A: middle group

* * *

System: K-562 leukemia
ASSAY_NAME: NCI-60 one-dose screen, 48 h (100 = growth as untreated, 0 = no growth, -100 = all killed)
ASSAY_CONTEXT: 10 µM unless noted
Procedure: Cells are grown in 96 well plates and exposed to the test compound for 48 hours. Compounds are tested at a single concentration, which is 10^-5 M for most compounds. The reported endpoint is percent growth (GI% or GIPRCNT), where numbers from 0 - 100% represent growth inhibition, and numbers from -100% - 0 represent cell death. For example, a value of 40 represents 60% growth inhibition. A value of 0 means no net growth occurred over the course of the experiment. […]
The panel holds about 83,000 compounds, 20% with a hit somewhere; the sample as a whole holds those more often.
hey, just use criterion met if measured growth is less than 30%, otherwise criterion not met

Q: Criterion: growth strictly below 30%. Is it met by CS(=O)(=O)c1ccc(-c2cnc3ccc(-c4cccc(S(C)(=O)=O)c4)nn23)cc1 ?
A: criterion not met

Q: Criterion: growth strictly below 30%. Is it met by O=[N+]([O-])c1cccc(-c2nc3sccn3c2-c2ccnc(NCCNS(=O)(=O)c3ccc(C(F)(F)F)cc3)n2)c1 ?
A: criterion met

Q: # strict comparison: is reported growth < 30%? input = Cc1ccn2c(-c3csc(Nc4cccc(O)c4)n3)c(C)nc2c1
A: criterion met

Q: hey, is growth for CS(=O)CCCCCN=C=S (configuration not stated) lower than 30% or not?
A: criterion met

Q: Strictly below 30% in growth? CC(=O)Oc1cc2cnc3c4cc(OC(C)=O)c(OC(C)=O)cc4ccc3c2cc1OC(C)=O
A: criterion met

Q: Quick check: does Oc1ccccc1/C=N/Nc1ccc2ccccc2n1 have growth under 30%?
A: criterion met

Q: Just wondering, is growth of Nc1cc(-c2nc3sccn3c2-c2ccnc(NCCCNS(=O)(=O)c3ccc(F)cc3)n2)ccc1F below 30%?
A: criterion met

Q: Confirm or reject: growth of COC1=CC(=O)C(OC)=C(OC)C1=O lies strictly below 30%
A: criterion not met

Q: Lab log: compare recorded growth with 30%; is it strictly lower for CC(=O)Oc1ccc(Nc2c3ccccc3nc3ccccc23)cc1 ?
A: criterion met

Q: Please let me know if CCCCCC(=O)N(CCCC)CCCC shows growth below 30%.
A: criterion not met

Q: Lab log: compare recorded growth with 30%; is it strictly lower for COC(/C=C/c1ccc([N+](=O)[O-])cc1)OC ?
A: criterion not met

Q: Find out if reported growth for O=C1C(=O)N(CCCCn2cc(CO)nn2)c2ccccc21 is less than 30%
A: criterion not met

Q: State whether 30% exceeds growth recorded for O=C1Nc2c(ccc(Cl)c2Cl)/C1=C/c1cc(Br)c(O)c(Br)c1 .
A: criterion not met

Q: Lab note: growth threshold 30%. Does this compound come in strictly under it? COC(=S)SCN(CSC(=S)OC)c1ccc(Cl)cc1
A: criterion not met

Q: growth under 30%? Item: Cc1ccc2cnc(N)c(C#Cc3cncc(C(=O)Nc4ccc(CN5CCN(C)CC5)c(C(F)(F)F)c4)c3)c2c1
A: criterion met

Q: Strictly below 30%: is that where growth of O=C(O)c1cn(C2CC2)c2cc(N3CCN(Cc4nc5c(cnn5-c5ccc([N+](=O)[O-])cc5)c(=O)[nH]4)CC3)c(F)cc2c1=O sits?
A: criterion not met

Q: Please let me know if COc1ccc(-c2cc(C(=O)N=Nc3c(O)[nH]c4ccccc34)no2)cc1 shows growth below 30%.
A: criterion not met

Q: Determine if COc1c(C2CC(=O)Nc3c2cnn3Cc2ccco2)cc2c(c1OC)OCO2 (configuration not stated) shows growth strictly lower than 30%.
A: criterion met

Q: Is growth strictly under 30% for the entry CCCCCCCCOC(=O)CC[C@@H](C)[C@H]1CC[C@H]2[C@@H]3[C@H](OC(=O)CCN)C[C@@H]4C[C@H](OC(=O)CCN)CC[C@]4(C)[C@H]3C[C@H](OC(=O)CCN)[C@]12C ?
A: criterion met

Q: Lab note: growth threshold 30%. Does this compound come in strictly under it? COc1ccc(-c2nc(Nc3cc(C)[nH]n3)c3ccccc3n2)cc1
A: criterion met

Q: Field: below-cutoff. Rule: recorded growth strictly less than 30%. Subject: O=C(/C=C\c1cccc([N+](=O)[O-])c1)c1ccccc1
A: criterion not met

Reference source for all entries: PubChem BioAssay (NCI)
